Assay: Hemolytic activity against human RBC at 0.39 uM after 1 hr by Drabkin's assay relative to control
Type: ADME, cell-based, Erythrocyte
Conditions: human red blood cells (erythrocytes), read-out: Activity
Would you mind telling me the reported hemolysis at 1 h, 0.39 µM of each entry?
Numbers only, in %.

Provide hemolysis at 1 h, 0.39 µM for all items below, preserving their order.
1. O=CN1CCCN1C(=O)N1CCC[C@H]1C(=O)N1CCCN1C(=O)N1CCC[C@H]1C(=O)N1CCCN1C(=O)N1CCC[C@H]1C(=O)N1CCCN1C(=O)N1CCC[C@H]1C(=O)N1CCCN1C(=O)N1CCC[C@H]1C(=O)N1CCCN1C(=O)N1CCC[C@H]1C(=O)NCCO
2. CC(C)(C)OC(=O)N1CCC[C@H]1C(=O)N1CCCN1C(=O)N1CCC[C@H]1C(=O)N1CCCN1C(=O)N1CCC[C@H]1C(=O)N1CCCN1C(=O)N1CCC[C@H]1C(=O)N1CCCN1C(=O)OCc1ccccc1
3. CC(C)(C)OC(=O)[C@@H]1CCCN1C(=O)N1CCCN1C(=O)[C@@H]1CCCN1C(=O)N1CCCN1C(=O)[C@@H]1CCCN1C(=O)N1CCCN1C(=O)[C@@H]1CCCN1C(=O)N1CCCN1C(=O)OCc1ccccc1
4. O=C(NCCO)[C@@H]1CCCN1C(=O)N1CCCN1C(=O)[C@@H]1CCCN1C(=O)N1CCCN1C(=O)[C@@H]1CCCN1C(=O)N1CCCN1C(=O)[C@@H]1CCCN1C(=O)N1CCCN1C(=O)[C@@H]1CCCN1C(=O)N1CCCN1C(=O)[C@@H]1CCCN1C(=O)N1CCCN1C(=O)[C@@H]1CCCN1C(=O)N1CCCN1C(=O)[C@@H]1CCCN1C(=O)N1CCCN1C(=O)OCc1ccccc1
5. O=CN1CCCN1C(=O)N1CCC[C@H]1C(=O)N1CCCN1C(=O)N1CCC[C@H]1C(=O)N1CCCN1C(=O)N1CCC[C@H]1C(=O)N1CCCN1C(=O)N1CCC[C@H]1C(=O)N1CCCN1C(=O)N1CCC[C@H]1C(=O)N1CCCN1C(=O)N1CCC[C@H]1C(=O)N1CCCN1C(=O)N1CCC[C@H]1C(=O)N1CCCN1C(=O)N1CCC[C@H]1C(=O)NCCO

**Result**
1. -0.12
2. 0.227
3. 0.08
4. -0.04
5. -0.11

Source of measurements: ChEMBL document CHEMBL4196059
